Give GI50 for every item shown.
# Tested on: OVCAR-8
# Assay name: NCI tumour cell line growth inhibition, 48 h
Activity calls are given as the source filed them. Cut-off read from the data, not from the text of the source: active = GI50 up to about 1.1 µM and inactive = higher.

Input line: If you can, please state the reported GI50 value of "CC(C)C(=O)NCC[C@@H](CNC(=O)OC(C)(C)C)NC(=O)OC(C)(C)C" .
Output line: > 100 µM (inactive)

Input line: Likewise for "O=C1Nc2ccc(S(=O)(=O)O)cc2/C1=N/Nc1ccccc1[N+](=O)[O-]" ?
Output line: > 100 µM (inactive)

Input line: Likewise for "OCc1cn(Cc2ccccc2)c2ccccc12" ?
Output line: 13 µM (inactive)

Input line: Likewise for O=C(O)C1CC(C2CCCCN2)CN2CCCCC12 (stereo not given) ?
Output line: > 100 µM (inactive)

Input line: Likewise for "Cc1c(C(=O)/C=C/C=C/c2ccccc2)[n+]([O-])c2ccccc2[n+]1[O-]" ?
Output line: 42.8 µM (inactive)

Input line: Likewise for "Nc1nc2c3nc(Nc4ccccc4)sc3nc(=S)n2c2sc(Nc3ccccc3)nc12" ?
Output line: 15.2 µM (inactive)

Input line: Likewise for "O=C(CCCC(=O)Nc1ccc(Cl)cc1Cl)CC(=O)c1ccc2ccccc2c1" ?
Output line: > 100 µM (inactive)

Input line: Likewise for "C=CCOC(=O)CC[C@H](NC(=O)[C@@H](CCC(F)(F)F)Cc1ccc(O)cc1)C(=O)OCC=C" ?
Output line: > 100 µM (inactive)

Input line: Likewise for COC1CCC(=C2C(=O)OC(C)(C)OC2=O)N1 (stereo not given) ?
Output line: > 100 µM (inactive)

Input line: Likewise for CC(C)C1=C2CCC3(C)C(CCC4C5C6OCC5(CCC6(C)C)CCC43C)C2(C)CC1 (stereo not given) ?
Output line: 17.7 µM (inactive)

* * *

# Test system: EKVX
# Assay name: NCI tumour cell line growth inhibition, 48 h
Calls of active or inactive are those of the source. No stated cut-off is given here; in the data, active = GI50 up to about 1.1 µM and inactive = higher.
Measurement type: GI50

Input line: If you can, please state the reported GI50 value of "CCOC(=O)N1CCC(N[C@@H]2c3cc4c(cc3[C@@H](c3cc(OC)c(O)c(OC)c3)[C@H]3C(=O)OC[C@@H]32)OCO4)CC1" .
Output line: 2.69 µM (inactive)

Input line: Likewise for "N#Cc1ncc(C(Cl)Cl)nc1Cl" ?
Output line: 1.75 µM (inactive)

Input line: Likewise for "CC(=O)c1cccn1/C=C(\OC(=O)OC(C)(C)C)c1ccc[nH]1" ?
Output line: 25.5 µM (inactive)

Input line: Likewise for O=c1[nH]c(=O)n(C2OC(CO)C(O)C2O)cc1OCCc1ccccc1 (stereo not given) ?
Output line: > 100 µM (inactive)

Input line: Likewise for "O=c1c2cc(-c3ccccc3)sc2nc2n1N=C(c1ccc(Cl)cc1)CS2" ?
Output line: > 100 µM (inactive)

Input line: Likewise for C=C(Cl)/C(=C\Cl)CCC(Br)C(C)C (stereo not given) ?
Output line: > 100 µM (inactive)

Input line: Likewise for "O=c1[nH]cc(/N=C/c2cc(Cl)cc(Cl)c2O)c(=O)[nH]1" ?
Output line: 30.7 µM (inactive)

Input line: Likewise for "COc1ccc(/C(Cl)=C(\C=O)c2ccc(Cl)c(Cl)c2)cc1OC" ?
Output line: 9.53 µM (inactive)

Input line: Likewise for "O=C(CSc1n[nH]c(=O)[nH]c1=O)NNC(=O)c1cccc2nc3ccccc3nc12" ?
Output line: > 100 µM (inactive)

Input line: Likewise for CC(C)(C)OC(=O)NC(Cc1ccc(OCc2ccccc2)cn1)C(=O)N1CCSCC1 (stereo not given) ?
Output line: 41.6 µM (inactive)
